Source of measurements: paper PMC6332596

test-method-notes: Pharmacokinetics of plasma chiauranib after single and multiple oral doses in patients (LC-MS/MS)
Type: in vivo, human
condition-summary: human, plasma, oral, 50 mg, Day1, single dose 50 mg (n = 3); read-out: AUC0–24 h
readout: AUC(0-t) (ng·h/mL)

1) COc1ccc2c(Oc3ccc4c(C(=O)Nc5ccccc5N)cccc4c3)ccnc2c1	7420

----------
test-method-notes: Pharmacokinetics of plasma chiauranib after single and multiple oral doses in patients (LC-MS/MS)
Type: in vivo, human
condition-summary: human, plasma, oral, 65 mg, Day1, single dose 65 mg (n = 4); read-out: AUC0–144 h
readout: AUC(0-t) (ng·h/mL)

1. COc1ccc2c(Oc3ccc4c(C(=O)Nc5ccccc5N)cccc4c3)ccnc2c1	24800
